# experiment: Plasma stability, mouse plasma (Balb/c; Table 5 head CD-1 Mouse)
# Format: in vitro ADME
# condition_parameters: balb/c plasma, 2 μM, anti-coagulant K2-EDTA, 120 min
Counter-ions that a name gives are not always drawn.
This listing pairs compounds with measured % Remaining at T120.
Quick reminder: number only, in %, skip the unit.

Illustrative cases are given below, each with its answer.
// returns reported % Remaining at T120 for input CNS(=O)(=O)Nc1nccc(Cc2c(CN(C)C)c3ccc(OC(=O)N(C)C)cc3oc2=O)c1F
105.4

Another: CCS(=O)(=O)Nc1cccc(Cc2c(CN(C)C)c3ccc(OC(=O)N(C)C)cc3oc2=O)c1F
94.2

CNS(=O)(=O)Nc1cccc(Cc2c(CN3CCNCC3)c3cc(Cl)c(OC(=O)N(C)C)cc3oc2=O)c1Cl [Compound 256, hydrochloride] ?
86.8

Others:
Request the reported % Remaining at T120 associated with CCCS(=O)(=O)Nc1cccc(Cc2c(CN3CCNCC3)c3cc(Cl)c(OC(=O)N(C)C)cc3oc2=O)c1F
100.5

Continue with CCN(C)Cc1c(Cc2cccc(NS(=O)(=O)NC)c2Cl)c(=O)oc2cc(OC(=O)N(C)C)ccc12
81.9

Also check CNS(=O)(=O)Nc1cccc(Cc2c(CN3CCNCC3)c3cc(F)c(OC(=O)N(C)C)cc3oc2=O)c1F
100.2

Now the same for CNS(=O)(=O)Nc1cccc(Cc2c(CN(C)C)c3ccc(OC(=O)N(C)C)cc3oc2=O)c1F
86.0

====

# System: phospho-MEK in A549 cells
# experiment: Cell-based pMEK (pMEK:tMEK, CRAF bypass) in A549 cells
# condition_parameters: 2 h, pMEK to total MEK normalized to DMSO control
measured_endpoint: A549-CRAF BP 100 nM, 2 h
Returns: the value as a bare number; no unit string appended.

Suppose we examine the compound CN(C)C(=O)Oc1ccc2c(CN3CCNCC3)c(Cc3ccnc(NS(=O)(=O)C4CC4)c3F)c(=O)oc2c1 ; what A549-CRAF BP 100 nM, 2 h value has been reported?
90.2

More entries:
# input compound: CNS(=O)(=O)Nc1cccc(Cc2c(CN3CC(OC)C3)c3ccc(OC(=O)N(C)C)cc3oc2=O)c1F ; wanted: its A549-CRAF BP 100 nM, 2 h
59.2

Cool, now CNS(=O)(=O)Nc1cccc(Cc2c(CN3CCNCC3)c3cc(F)c(OC(=O)N(C)C)cc3oc2=O)c1F
26.9

What about CNS(=O)(=O)Nc1cccc(Cc2c(CN(C)CC#N)c3ccc(OC(=O)N(C)C)cc3oc2=O)c1F ?
95.8

====

The following compounds are shown together with reported inhibition at 30 min, 10 µM values.
# target_of_assay: CYP2C9 (Homo sapiens)
# Sequence (P11712 whole entry): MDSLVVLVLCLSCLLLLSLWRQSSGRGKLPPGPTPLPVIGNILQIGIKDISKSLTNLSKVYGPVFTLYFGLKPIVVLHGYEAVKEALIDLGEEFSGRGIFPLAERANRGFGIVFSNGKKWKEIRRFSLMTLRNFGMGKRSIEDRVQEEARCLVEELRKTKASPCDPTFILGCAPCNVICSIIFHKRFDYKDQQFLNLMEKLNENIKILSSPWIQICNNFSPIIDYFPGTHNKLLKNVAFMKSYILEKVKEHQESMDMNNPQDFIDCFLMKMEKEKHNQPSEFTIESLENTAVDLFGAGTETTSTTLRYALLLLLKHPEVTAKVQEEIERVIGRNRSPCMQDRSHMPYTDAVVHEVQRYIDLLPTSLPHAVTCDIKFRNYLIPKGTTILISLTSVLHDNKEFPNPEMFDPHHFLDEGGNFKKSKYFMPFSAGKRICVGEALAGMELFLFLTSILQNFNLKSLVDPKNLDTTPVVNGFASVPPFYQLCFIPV
# experiment: CYP450 panel inhibition in human liver microsomes, 2C9 (diclofenac)
# condition_parameters: human, microsomes, pH 7.4
Please state the figure in %; there is no need to write the unit.

Given CCN(C)Cc1c(Cc2cccc(NS(=O)(=O)NC)c2Cl)c(=O)oc2cc(OC(=O)N(C)C)ccc12 , state its recorded inhibition at 30 min, 10 µM.
25.8

====

# Test system: phospho-ERK in A549 (KRAS G12S) cells
# experiment: Cell-based pERK (pERK:tERK) in A549 cells
# Set-up: unit not given here
# condition_parameters: 10 uM, 2 h; phospho- to total protein ratio normalized to DMSO control
Note to self: use true (1) only for A549-pERK 10 uM, 2 h readings below 10; a reading exactly at 10 still gets false (0).

Consider CNS(=O)(=O)Nc1cccc(Cc2c(CNC(=O)C(C)(C)O)c3ccc(OC(=O)N(C)C)cc3oc2=O)c1F [Compound 212] . Does its A549-pERK 10 uM, 2 h lie strictly below 10?
false (0)

Continuing:
Determine whether this compound shows A549-pERK 10 uM, 2 h lower than 10 (ties excluded): CNS(=O)(=O)Nc1cccc(Cc2c(CNC(=O)c3c[nH]nn3)c3ccc(OC(=O)N(C)C)cc3oc2=O)c1F [Compound 211]
false (0)

Another: CNS(=O)(=O)Nc1cccc(Cc2c(CNC(=O)c3nn[nH]n3)c3ccc(OC(=O)N(C)C)cc3oc2=O)c1F [Compound 213]
false (0)

# repeat for CNS(=O)(=O)Nc1cccc(Cc2c(CC(=O)N3CC(OC)C3)c3ccc(OC(=O)N(C)C)cc3oc2=O)c1F [Compound 216]
true (1)

What do we get for C#CCNCCc1c(Cc2cccc(NS(=O)(=O)NC)c2F)c(=O)oc2cc(OC(=O)N(C)C)ccc12 [Compound 183] ?
true (1)

====

# experiment: Kinetic solubility (PBS pH 7.4; 4 hr)
# Assay type: physicochemical
# condition_parameters: PBS buffer, aqueous buffer, kinetic from dmso stock; PBS pH = 7.4; 4 hr (Table 7); read-out: Kinetic Solubility (PBS pH = 7.4; 4 hr)
measured_endpoint: solubility kinetic at 4 h (µM)
Quick reminder: number only, in µM, skip the unit.

Item under review: Cn1cnc2c(F)c(Nc3ccc(Br)cc3Cl)c(C(=O)NOCCO)cc21 [Reference-1, Selumetinib] . Reported solubility kinetic at 4 h?
36

====

# experiment: Hepatocyte stability, balb/c mouse
# Format: in vitro ADME
# condition_parameters: balb/c mouse hepatocytes, 0.5 million cells/ml
Where a name gives a salt, the structure may show the parent alone.
Entries and their half-life at 2 μM values follow.
Numbers only here, please. The scale is h.

Consider the reported half-life at 2 μM for these compounds:
Please look up its half-life at 2 μM: CNS(=O)(=O)Nc1cccc(Cc2c(CN(C)C)c3ccc(OC(=O)N(C)C)cc3oc2=O)c1Cl [Compound 274]
3.13

Moving on to the next compound: CNS(=O)(=O)Nc1cccc(Cc2c(CN3CCNCC3)c3ccc(OC(=O)N(C)C)cc3oc2=O)c1Cl [Compound 246, hydrochloride]
4.53

Same question, CCN(C)Cc1c(Cc2cccc(NS(=O)(=O)NC)c2F)c(=O)oc2cc(OC(=O)N(C)C)c(F)cc12 [Compound 238] this time
2.48

What would you report for CNS(=O)(=O)Nc1cccc(Cc2c(CN3CCNCC3)c3cc(Cl)c(OC(=O)N(C)C)cc3oc2=O)c1Cl [Compound 256, hydrochloride] ?
3.28

Input CCS(=O)(=O)Nc1cccc(Cc2c(CN3CCNCC3)c3cc(Cl)c(OC(=O)N(C)C)cc3oc2=O)c1Cl [Compound 257, hydrochloride]
3.43

Query compound follows.
Find the recorded half-life at 2 μM belonging to CCN(C)Cc1c(Cc2cccc(NS(=O)(=O)NC)c2Cl)c(=O)oc2cc(OC(=O)N(C)C)ccc12 [Compound 245] and report it.
2.17

====

Measured half-life at 2 μM by item
# experiment: Plasma stability, mouse plasma (Balb/c; Table 5 head CD-1 Mouse)
# Assay type: in vitro ADME
# condition_parameters: mouse, pH 7.4; balb/c plasma, 2 μM, anti-coagulant K2-EDTA; read-out: T1/2
Structures can show the parent of a compound that is named as a salt.
Output spec: scalar in h, unitless text.

Known half-life at 2 μM results, listed for orientation:
// returns reported half-life at 2 μM for input CCN(C)Cc1c(Cc2cccc(NS(=O)(=O)NC)c2F)c(=O)oc2cc(OC(=O)N(C)C)c(F)cc12
2.67

Same for CCS(=O)(=O)Nc1cccc(Cc2c(CN3CCNCC3)c3cc(Cl)c(OC(=O)N(C)C)cc3oc2=O)c1Cl [Compound 257, hydrochloride]
9.77

// moving on: another record for half-life at 2 μM
For CNS(=O)(=O)Nc1cccc(Cc2c(CN3CCNCC3)c3ccc(OC(=O)N(C)C)cc3oc2=O)c1Cl [Compound 246, hydrochloride] , what is its reported half-life at 2 μM?
18.5

====

# Test system: beagle dog hepatocytes
# experiment: Hepatocyte stability, beagle dog
# Type: in vitro ADME
# condition_parameters: 2 μM, 0.5 million cells/ml
# Method: In this study, human, cynomolgus monkey, beagle dog, wistar hannover rat, and balb/c mouse hepatocyle stability was determined.
measured_endpoint: CLint (L/hr/kg) (L/h/kg)
Number in L/h/kg, nothing else.

Using the record for CNS(=O)(=O)Nc1cccc(Cc2c(CN3CCNCC3)c3cc(F)c(OC(=O)N(C)C)cc3oc2=O)c1F , report its CLint (L/hr/kg).
1.57

New cases:
Could you share which CLint (L/hr/kg) value was measured for CCCS(=O)(=O)Nc1cccc(Cc2c(CN3CCNCC3)c3cc(Cl)c(OC(=O)N(C)C)cc3oc2=O)c1F ?
9.31

Try this compound too: CCS(=O)(=O)Nc1cccc(Cc2c(CN(C)C)c3ccc(OC(=O)N(C)C)cc3oc2=O)c1F
3.78

Same again, this time with CNS(=O)(=O)Nc1nccc(Cc2c(CN(C)C)c3ccc(OC(=O)N(C)C)cc3oc2=O)c1F
5.73

What do you get for CNS(=O)(=O)Nc1cccc(Cc2c(CN(C)C)c3cc(F)c(OC(=O)N(C)C)cc3oc2=O)c1F ?
2.51

Proceed to CNS(=O)(=O)Nc1cccc(Cc2c(CN(C)C)c3ccc(OC(=O)N(C)C)cc3oc2=O)c1F
2.22
